Target: Tyrosine-protein kinase HCK (Homo sapiens) (UniProt P08631)
Sequence (P08631 2-526 limits assumed): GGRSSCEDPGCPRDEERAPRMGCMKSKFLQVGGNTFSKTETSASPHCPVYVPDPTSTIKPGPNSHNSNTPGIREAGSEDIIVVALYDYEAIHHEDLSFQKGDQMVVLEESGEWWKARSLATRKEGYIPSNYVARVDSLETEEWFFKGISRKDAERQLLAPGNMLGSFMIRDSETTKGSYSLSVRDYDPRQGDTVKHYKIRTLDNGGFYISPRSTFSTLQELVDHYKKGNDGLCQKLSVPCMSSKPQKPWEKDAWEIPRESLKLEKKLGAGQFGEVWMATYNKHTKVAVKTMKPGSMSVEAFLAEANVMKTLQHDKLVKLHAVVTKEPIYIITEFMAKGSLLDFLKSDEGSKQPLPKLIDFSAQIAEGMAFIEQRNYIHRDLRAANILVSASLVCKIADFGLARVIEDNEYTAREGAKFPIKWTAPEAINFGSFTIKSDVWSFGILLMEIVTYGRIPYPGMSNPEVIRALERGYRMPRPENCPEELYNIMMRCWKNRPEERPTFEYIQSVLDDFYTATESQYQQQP
Conditions: at 1 µM
Recorded Endpoint: residual activity (%)
Answers are plain numbers, in %.

NC(=O)c1ccc2[nH]c(-c3ccc(Oc4ccc(Cl)cc4)cc3)nc2c1; 96
CC(=O)O/N=C1\C(=C2\C(=O)Nc3cc(Br)ccc32)Nc2ccccc21; 3
COc1cc2ncnc(Nc3ccc(Oc4ccccc4)cc3)c2cc1OC; 20
O=c1c2ccccc2[nH]c(=S)n1CCN1CCC(=C(c2ccc(F)cc2)c2ccc(F)cc2)CC1; 101

residual activity reading for "CC(C)n1cnc2c(NCc3ccccc3)nc(NCCCO)nc21" : 84

* * *

Target: Tyrosine-protein kinase JAK2 (Homo sapiens) (UniProt O60674)
Sequence (O60674 whole entry): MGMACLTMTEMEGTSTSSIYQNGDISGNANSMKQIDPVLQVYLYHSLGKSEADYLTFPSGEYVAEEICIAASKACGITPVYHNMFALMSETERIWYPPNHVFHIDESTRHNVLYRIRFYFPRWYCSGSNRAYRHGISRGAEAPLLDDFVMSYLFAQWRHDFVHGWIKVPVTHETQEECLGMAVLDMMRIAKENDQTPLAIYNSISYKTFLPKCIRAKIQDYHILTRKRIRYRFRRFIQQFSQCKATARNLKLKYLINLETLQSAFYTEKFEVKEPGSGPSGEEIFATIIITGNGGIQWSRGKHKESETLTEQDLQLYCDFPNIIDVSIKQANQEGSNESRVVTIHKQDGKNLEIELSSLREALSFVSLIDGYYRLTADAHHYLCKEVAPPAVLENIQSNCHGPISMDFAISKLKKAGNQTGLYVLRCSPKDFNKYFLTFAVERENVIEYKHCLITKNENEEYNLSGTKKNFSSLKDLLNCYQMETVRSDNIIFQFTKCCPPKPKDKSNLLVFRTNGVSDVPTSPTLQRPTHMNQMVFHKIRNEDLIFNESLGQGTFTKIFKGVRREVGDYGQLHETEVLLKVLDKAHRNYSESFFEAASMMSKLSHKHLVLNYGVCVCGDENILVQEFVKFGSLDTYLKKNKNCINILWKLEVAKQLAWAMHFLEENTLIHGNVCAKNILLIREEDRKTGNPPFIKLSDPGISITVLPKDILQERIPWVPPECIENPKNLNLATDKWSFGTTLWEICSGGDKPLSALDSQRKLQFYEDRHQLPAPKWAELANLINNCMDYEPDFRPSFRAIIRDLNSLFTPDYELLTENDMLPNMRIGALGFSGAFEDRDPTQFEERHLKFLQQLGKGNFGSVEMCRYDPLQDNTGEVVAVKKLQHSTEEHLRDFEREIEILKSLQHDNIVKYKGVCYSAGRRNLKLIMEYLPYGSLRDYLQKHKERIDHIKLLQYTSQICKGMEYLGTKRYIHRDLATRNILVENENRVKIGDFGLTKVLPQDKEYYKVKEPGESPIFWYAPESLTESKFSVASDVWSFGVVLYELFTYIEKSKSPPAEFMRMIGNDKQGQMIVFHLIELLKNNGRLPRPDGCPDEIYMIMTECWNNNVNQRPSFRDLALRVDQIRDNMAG
Settings: at 1 µM
Field: residual activity. Provide a value for each of the compounds that follow.
One number for each entry, in %.

N#Cc1cnc2cnc(NCc3cccnc3)cc2c1Nc1ccc(F)c(Cl)c1; 96

Need residual activity for each of these compounds.
1. O=C1NC(=O)c2c1c1c3ccccc3[nH]c1c1[nH]c3cc(Br)ccc3c21
2. O=C1Nc2ccc(Br)cc2/C1=C\c1cc2c([nH]1)CCCC2
3. CCN(CC)C(=O)c1ccc(Nc2nc(OCC3CCCCC3)c3nc[nH]c3n2)cc1
4. COc1cc2ncnc(Nc3ccc(Oc4ccccc4)cc3)c2cc1OC
5. CO[C@H]1[C@@H](OC)C[C@H](C)[C@@H](OC)C2=CC(=O)C=C(NC(=O)/C(C)=C/C=C/[C@H](OC)[C@@H](OC(N)=O)/C(C)=C/[C@@H]1C)C2=O
6. O=[N+]([O-])c1ccc(-c2nc(-c3ccc(F)cc3)c(-c3ccncc3)[nH]2)cc1

1. 97
2. 105
3. 3
4. 118
5. 114
6. 99

For every record below, what is its residual activity?
1. Oc1ccc(Nc2nc(-c3ccc(Cl)cc3)cs2)cc1
2. CC(=O)c1ccc(N2CCOCC2)cc1O

106
102
